Value source: paper PMC4980666

- ASSAYED SYSTEM: influenza virus vRNPs reconstituted in HEK293T cells (Influenza A virus, UniProt P03433)
- ASSAY: vRNP reconstitution assay in HEK293T cells
- Type: cell-based
- STATED CONDITIONS: read-out: vRNP reconstitution assay Activity EC50
pEC50: −log10 of the molar value.
Classify as follows. Reported pEC50 greater than or equal to 5: Criterion met. Reported pEC50 below: Criterion not met.

COMPOUND | CATEGORY
NC(=O)N/N=C/c1cc(O)c(O)c(O)c1 [Compound 27] | Criterion not met
O=C(N/N=C/c1ccc(O)c(O)c1O)c1cc(O)c(O)c(O)c1 [Compound 20] | Criterion met
O=C(N/N=C/c1cccc(O)c1O)c1ccccc1O [Compound 7] | Criterion met
O=C(N/N=C/c1ccc(O)cc1O)c1cc(O)c(O)c(O)c1 [Compound 17] | Criterion met
COc1cccc(/C=N/NC(N)=O)c1O [Compound 2] | Criterion not met
O=C(N/N=C/c1cccc(O)c1O)c1ccccc1 [Compound 5] | Criterion met
O=C(N/N=C/c1cc(O)c(O)cc1O)c1ccccc1O [Compound 9] | Criterion met
O=C(N/N=C/c1cc(O)c(O)c(O)c1)c1ccccc1O [Compound 11] | Criterion met
O=C(N/N=C/c1cc(O)c(O)c(O)c1)c1cc(O)c(O)c(O)c1 [Compound 23] | Criterion met
O=C(N/N=C/c1ccccc1O)c1cc(O)c(O)c(O)c1 [Compound 14] | Criterion met
O=C(N/N=C/c1c(O)cc(O)cc1O)c1cc(O)c(O)c(O)c1 [Compound 22] | Criterion met
CCCCCCCC(=O)N/N=C/c1cccc(OC)c1O [Compound 4] | Criterion met
O=C(N/N=C/c1cccc(O)c1O)c1cc(O)c(O)c(O)c1 [Compound 18] | Criterion met
O=C(N/N=C/c1cc(O)ccc1O)c1cc(O)c(O)c(O)c1 [Compound 15] | Criterion not met
COc1cccc(/C=N/NC(=O)c2ccccc2)c1O [Compound 6] | Criterion not met
O=C(N/N=C/c1cc(O)c(O)cc1O)c1cc(O)c(O)c(O)c1 [Compound 21] | Criterion met
COc1cccc(/C=N/NC(=O)c2ccccc2O)c1O [Compound 8] | Criterion met
COc1ccc(O)c(/C=N/NC(=O)c2cc(O)c(O)c(O)c2)c1 [Compound 16] | Criterion met
O=C(N/N=C/c1ccccn1)c1cc(O)c(O)c(O)c1 [Compound 24] | Criterion not met
